target: HLA-A*02:03; assay: IEDB peptide-MHC binding, purified MHC/competitive/radioactivity; bounds were set here for any values at or beyond the usual limits of such assays; details: source organism: Vaccinia virus WR
IC50 vs 100 nM: less than gives Criterion met; not less than gives Criterion not met.

>  <Seq>
NTITTFIPI

>  <Label Class>
Criterion not met

$$$$
>  <Seq>
VQLSNNKYV

>  <Label Class>
Criterion not met

$$$$
>  <Seq>
LLNMRDLIV

>  <Label Class>
Criterion met

$$$$
>  <Seq>
NLDDVYSYI

>  <Label Class>
Criterion met

$$$$
>  <Seq>
QQFANVISKI

>  <Label Class>
Criterion met

$$$$
>  <Seq>
GMMQNDYGGM

>  <Label Class>
Criterion not met

$$$$
